experiment: in vitro; conditions: PAMPA, pH 5
recordedMetric: Papp at 10 µM (nm/s)
Unit nm/s implied. Number only.

Query: Which Papp at 10 µM reading was recorded for the compound Cn1c(C(=O)NC2(c3ccc(C(=O)O)c(F)c3)COC2)cc2c(Cl)c(Cl)ccc21 ?
Reply: 152

----------
biological target: L-lactate dehydrogenase A chain (Homo sapiens); assay: Inhibition of recombinant human LDHA expressed in Escherichia coli using lactate as substrate incubated for 30 mins followed by substrate addition
recordedMetric: IC50

- compoundString: "Cn1c(C(=O)NC2(c3ccc([C@@H](O)c4cccnc4)cc3)COC2)cc2c(Cl)c(Cl)ccc21"
  assaySystem: "L-lactate dehydrogenase A chain (Homo sapiens)"
  IC50: "> 10 µM"

# evaluate next
Query: For the molecule O=C1NC[C@@H](COc2cc3[nH]c(C(=O)N[C@H](CO)c4ccc(C(=O)O)cc4)cc3cc2Cl)O1 , what IC50 is on record?
Reply: > 10 µM
